Molecular target: HLA-B*18:01
Assay: IEDB peptide-MHC binding, purified MHC/competitive/fluorescence; filed as Kd, often an IC50 or EC50 that approximates it; bounds were set here for any values at or beyond the usual limits of such assays
Conditions: source organism: Lechiguanas virus
measure: Kd

Sample AMPKTIYEL — what was its Kd? ≥ 20 µM

###

Target: HLA-B*40:01
Test: IEDB peptide-MHC binding, purified MHC/direct/fluorescence; filed as Kd, often an IC50 or EC50 that approximates it; bounds were set here for any values at or beyond the usual limits of such assays
Details: source organism: Pseudomonas aeruginosa UCBPP-PA14
measure: Kd

Look up Kd for this sequence: YTFCRLNVK ≥ 20 µM
